tested on: RPMI-8226 leukemia; assay: NCI-60 one-dose screen, 48 h; conditions: 10 µM unless noted
This is part of a sample that, as a whole, favours compounds with a hit. Of some 83,000 tested, about 20% had one in any assay. The source made the active and inactive calls. Rule for the calls: active = growth percent below 10; inactive = the rest.
Assign a class; possible classes are label 1 = active, label 0 = inactive

Example results:
compound	assigned-label
CC1=C2[C@@H](CC1)[C@]1(C)O[C@@](C3CC3)(C[C@H]1OC(=O)CO)[C@H]2OC(=O)/C=C/c1ccccc1	label 0
Cc1ccc(-c2nc([P+](c3ccccc3)(c3ccccc3)c3ccccc3)c(Nc3ccccc3)o2)cc1	label 1
N=C(N)SCc1c2ccccc2c(CSC(=N)N)c2ccccc12	label 0
CCCCCCCCCCCCC[C@H](O)C[C@H](O)[C@H](C)N	label 0
FC(F)(F)Sc1ccc(/C=C/c2cc(/C=C/c3ccc(SC(F)(F)F)cc3)n(-c3ccccc3)n2)cc1	label 0

Prompt line: Record lookup: outcome of this test for Cc1nc2sc(C(=O)Nc3cccc(Cl)c3C)c(N)c2cc1C(O)c1ccccc1 (centres undefined) ?
Response line: label 1

Prompt line: # outcome recorded in this test, key = O=C(CN1C(=O)S/C(=C\C(Cl)=C\c2ccccc2)C1=O)NCCCn1ccnc1
Response line: label 1

Prompt line: Tell me the assay call for COc1ccc(CCNC(=O)COc2cc3c(Nc4ccc(F)c(Cl)c4)ncnc3cc2OC)cc1OC please.
Response line: label 0

Prompt line: Answer briefly: the call reported for CN(C)C(=O)c1cc2cnc(Nc3ccc(-c4csc5c(=S)cc(N6CCOCC6)oc45)cc3)nc2n1C1CCCC1 in this assay.
Response line: label 1

---

Provide the recorded growth for the entries that follow.
system: RXF 393 renal; assay: NCI-60 one-dose screen, 48 h (100 = growth as untreated, 0 = no growth, -100 = all killed); conditions: 10 µM unless noted
The panel holds about 83,000 compounds, 20% with a hit somewhere; the sample as a whole holds those more often.
Give bare numbers, in %.

Completed entries (count: 3):
compound	assay-value
Cc1ccc(-c2nc(C#N)c(S(=O)(=O)N(C)C)o2)cc1	105
CCOC(=O)C1=C(C)N=C2SC=C(c3ccc(F)cc3)N2[C@H]1c1cn(-c2ccccc2)nc1-c1ccc(Cl)cc1	97.1
CCC(=O)Oc1cc(Cl)c(Cl)cc1Cl	113

Please give growth for each item listed below.
1. Cc1nc2sc(C(=O)Nc3cccc(Cl)c3C)c(N)c2cc1C(O)c1ccccc1 (stereo not drawn)
2. N=C(N)SCc1c2ccccc2c(CSC(=N)N)c2ccccc12
3. N#C/C(=C\c1ccc(Br)cc1)n1nnc2c(F)cccc21

Response line:
46.2
99.7
-57.9

Report growth for every entry below.
1. CCOC(=O)c1c(-c2ccc(OC)cc2)c(C#N)c2c(C#N)c(N)nn2c1N
2. NC(=O)c1c(NC(=O)/C=C/c2cccs2)sc2c1CCC(=O)C2

Response line:
59.7
26.9

Each compound below has a recorded value; state its growth.
1. Cc1[nH]c(C(=O)Nc2nc3ccc(NC(=O)CCN)cc3s2)c(Cl)c1Cl
2. CCOC(=O)c1nc2c3ccccc3cnn2c1C(=O)c1ccc(OC)cc1
3. CC[C@@H]1NC(=O)[C@H]([C@H](O)[C@H](C)C/C=C/c2ccc(CN3C(=O)C(C)=C(C)C3=O)cc2)N(C)C(=O)[C@H](C(C)C)N(C)C(=O)[C@H](CC(C)C)N(C)C(=O)[C@H](CC(C)C)N(C)C(=O)[C@@H](C)NC(=O)[C@H](C)NC(=O)[C@H](CC(C)C)N(C)C(=O)[C@H](C(C)C)NC(=O)[C@H](CC(C)C)N(C)C(=O)CN(C)C1=O

Response line:
[81.9, 106, 80]

Dear colleague, could you please provide growth for the compounds listed below?
1. C/C(=C(\c1ccc(OCCN2CCOCC2)cc1)c1ccc(OC(=O)C2CCCCC2)cc1)c1ccc(Cl)cc1
2. Oc1ccccc1C=Nc1ccc(N2CCN(c3ccccc3)CC2)cc1
3. Nc1ccc(-c2nc3ccc4[nH]ncc4c3c3c2CCCC3)cc1F

Response line:
1. 94.9
2. 97.7
3. -13
